Test system: LOX IMVI melanoma
Assay: NCI tumour cell line growth inhibition, 48 h
readout.kind: TGI

Recorded results for 5 compounds are shown here.
Nc1ccc(C(=O)N/C(=C\c2cccc([N+](=O)[O-])c2)c2nc3c4c(ccc3[nH]2)C(=O)c2ccccc2C4=O)cc1 | > 100 µM
CCc1nc(-n2c(-c3ccccc3)nc3ccccc3c2=O)nc(N)c1-c1ccc(Cl)cc1 | > 100 µM
Nc1c(-c2nc3ccccc3[nH]2)sc(=S)n1-c1ccc(Cl)cc1 | 50.5 µM
CC(=O)N(CN1C(=O)CCC1C(=O)O)c1ccccc1Cl (configuration not stated) | > 100 µM
O=S(=O)(O)ONC1=NCCN1 | > 100 µM

Quick one: TGI of Cn1ncc(-c2ccc3c(=O)[nH]nc(CN)c3c2)c1-c1c(F)cc2ccccc2c1C#N ?
4.11 µM

Which TGI value belongs to CC1=C(C(=O)Nc2ccccc2)C(c2ccc(C(C)C)cc2)C(C(=O)Nc2ccccc2)=C(C)N1 ?
30.4 µM

Look at this compound and give its reported TGI. C#CCOC(=O)C(N)CCSC (configuration not stated)
> 100 µM

// returns reported TGI for input COc1ccc(C2C(Cl)C(=O)N2NC(=O)Cc2ccccc2)cc1OC (configuration not stated)
> 100 µM

Please report the recorded TGI for Cc1sc2ncn(Cc3ccc(Cl)c(Cl)c3)c(=O)c2c1C .
> 100 µM

What does the data say about its TGI? Entry: OCC(O)C(OC1OC(CO)C(O)C(O)C1O)c1nn(-c2ccccc2)c2nc3cc(Cl)ccc3nc12 (configuration not stated)
> 100 µM

---

Tested on: SW-620 colon
Test: NCI tumour cell line growth inhibition, 48 h
Each record here notes measured TGI.

CC1(C)CC2C(C1=O)C1(C)CCCC2(C)C1=O (stereo unspecified) | > 100 µM
ClCC#CCSc1ncnc2c1ncn2CC#CCCl | 4.79 µM
O=P1(c2ccccc2)C2=CCC=CC2C(c2ccccc2)N1Cc1ccccc1 (stereo unspecified) | 43 µM
O=C(Nc1ccc(I)cc1F)c1cc(I)ccc1O | > 36 µM
C=CCN1CCC2(CC1)NC(=O)c1ccccc1O2 | > 100 µM

Requested read-out: TGI. Entry: N#C/C(=C\c1ccccc1Br)C(=O)c1ccccc1
> 45.7 µM

Entry COC(=O)Cc1nc2ccccc2o1 : reported TGI = ?
> 100 µM

---

Each record here notes measured TGI.
System: RXF 393 renal
Experiment: NCI tumour cell line growth inhibition, 48 h

Record excerpt, results attached:
CN(C)CCNc1nc2ccccc2c2c(=O)c3ccccc3sc12 | 4.11 µM
OCC(O)C(O)C(O)C(O)/C=N/Nc1nc(O)c(/C=C2\C=Nc3ccccc32)[nH]1 (stereo unspecified) | > 100 µM
C#CCOC(=O)C(N)CCSC (stereo unspecified) | > 100 µM
COc1ccc(C2C(Cl)C(=O)N2NC(=O)Cc2ccccc2)cc1OC (stereo unspecified) | > 100 µM
COc1cc(C=O)cc(C=Nc2ccc(S(N)(=O)=O)cc2)c1O | 14.5 µM

Then there is this compound:
Given the compound COc1cc2c(cc1OC)-c1ncc3cc4c(cc3c1C2)OCO4 , what is its reported TGI?
> 100 µM

---

Recorded TGI values for a group of compounds are listed next.
Test system: KM12 colon
Experiment: NCI tumour cell line growth inhibition, 48 h

Here's what some known entries look like.
OCC(O)C(O)C(O)C(O)/C=N/Nc1nc(O)c(/C=C2\C=Nc3ccccc32)[nH]1 (stereo unspecified) | > 100 µM
C=CCC(SC)C1=C(C)C(=O)c2ccccc21 (stereo unspecified) | > 10 µM
COc1ccc(C2=NOP(c3ccccc3)(c3ccccc3)(c3ccccc3)C2)cc1 | > 100 µM
CC(C)N(C(C)C)P(OCCC#N)OC1CC(n2cnc3c(=O)[nH]cnc32)OC1COC(=O)NCCCCCCNC(=O)OC(C)(C)c1ccc(-c2ccccc2)cc1 (stereo unspecified) | 35.5 µM

Bench note: what TGI did C=CC(Br)(CBr)CCC(Br)C(C)C (stereo unspecified) show?
4.83 µM

TGI lookup needed for COc1ccccc1NCC(=O)Nn1c(C)nc2ccc(S(=O)(=O)Nc3ccccc3OC)cc2c1=O , thanks.
> 100 µM

---

# GI50 per entry
Test system: SF-295 CNS
Test: NCI tumour cell line growth inhibition, 48 h

# example entries with known answers
OC(COc1cccc2ccccc12)CN1CCN(c2ccccc2Cl)CC1 (stereo not given) | 11.9 µM
CCCCOc1ccc(/C=N/Nc2cc(C)nc3ccc(Cl)cc23)cc1 | 1.66 µM
Cc1sc2ncn(Cc3ccc(Cl)c(Cl)c3)c(=O)c2c1C | 3.85 µM

// fetch SF-295 CNS GI50 for COc1cc(C2c3cc4c(cc3[C@@H](Nc3ccc(N)cc3)C3COC(=O)[C@H]23)OCO4)cc(OC)c1O (stereo not given in full)
0.502 µM

Observed GI50 on SF-295 CNS for CC(=O)N1CCN(CCOc2ccc(C3CCN(C4=Nn5c(nnc5C(F)(F)F)CC4)CC3)cc2)CC1 , please.
12.2 µM

Lookup: GI50 / SF-295 CNS / O=C(Nc1cc(-c2cccnc2)nc(NCCCN2CCOCC2)n1)c1cc(Br)cc(C(F)(F)F)c1
1.94 µM

Give GI50 (SF-295 CNS) of the following molecule: CC[C@H](NC(=O)[C@H](CS(=O)(=O)CC1CC1)N[C@@H](c1ccc(F)cc1)C(F)(F)F)C(=O)C(=O)NC1CC1
> 100 µM

Query GI50 on SF-295 CNS for O=[N+]([O-])c1cc(F)c2cccnc2c1O
3.77 µM

What reported GI50 corresponds to COc1ccc2[nH]c(O)c(/C=c3/cc4c(c(-c5ccc(F)cc5)n3)=Nc3ccccc3-4)c2c1 on SF-295 CNS?
10.5 µM

Enter reported GI50 observed with SF-295 CNS for O=S(=O)(O)ONC1=NCCN1
> 100 µM

---

System: KM12 colon
Test: NCI tumour cell line growth inhibition, 48 h
readout.kind: TGI (µM)
The reply should be a number in µM, with the unit left off.

Solved cases (3 shown):
CN1CCN(CCOc2ccc(-c3cnc4c(-c5ccc(F)cc5)cnn4c3)cc2)CC1 | 2.36
CN(C)c1ccc(/C=c2/c3cc([N+](=O)[O-])ccc3n3c2cc(-c2ccccc2)[n+]3C)cc1 | 2.59
COc1cc([C@@H]2c3cc4c(cc3C[C@H]3COC(=O)[C@@H]32)OCO4)cc2c1OCO2 | 3.2

TGI for CN(C)CCNc1nc(-c2cccs2)cc(-c2cccs2)n1 ?
28.5

---

System: U251 CNS
Assay: NCI tumour cell line growth inhibition, 48 h
readout.kind: TGI

The following compounds have reported results that may help.
CCOC(=O)Cc1csc(NC(=O)COC(=O)c2ccc(OC)cc2)n1 | > 100 µM
CN1C(=O)N(C)C2(CCN(CCCCCCF)CC2)C1=O | > 100 µM
CC(C)(C)OC(=O)N1N=NC2C3OC(CC3=O)C21 (stereo unspecified) | > 100 µM
CCCCCCCCCCCCCCCCP(=O)([O-])OCC[N+](C)(C)C | 31.2 µM
COCCNC1CCC2(SCCS2)c2[nH]c3ccccc3c21 (stereo unspecified) | > 100 µM
O=c1c2c3c(sc2n2c(-c4ccc(Br)cc4)nnc2n1Cc1ccccc1)CCCC3 | 19.7 µM

I have this compound here, O=C(/C(=C/c1ccccc1)c1ccccc1)N1c2ccccc2CC1c1c[nH]c2ccccc12 (stereo unspecified) , and I need its recorded TGI.
> 100 µM

Which TGI value is on record for COC(=O)C(Cc1nc2ccccc2[nH]c1=O)C(=O)C(=O)Nc1cc(C(F)(F)F)ccc1Cl (stereo unspecified) ?
66.6 µM

---

# maps each entry to its GI50
System: PC-3 prostate
Assay: NCI tumour cell line growth inhibition, 48 h

# count of solved cases: 3
O=S(=O)(O)ONC1=NCCN1 | > 100 µM
CCCn1c(N)c(C(=O)CNc2ccc(I)cc2)c(=O)[nH]c1=O | 5.44 µM
COc1ccc(/C=N/N=C(\[O-])c2ccncc2)cc1F.COc1ccc(/C=N\N=C(/[O-])c2ccncc2)cc1F.[Cu+2] | 16.8 µM

Lab request: please report GI50 under test system PC-3 prostate for Oc1c(CN2CCOCC2)cc(COCc2ccccc2)c2cccnc12
7.34 µM

Query GI50 on PC-3 prostate for CCOC(=O)/C(C#N)=C/Nc1ccc(-c2nc3ccccc3[nH]2)cc1
29.8 µM

Please provide the recorded GI50 for COc1c(N2CCN(Cn3c(O)c(N=NC(=O)c4ccncc4)c4cc(F)ccc43)C(C)C2)c(F)cc2c(=O)c(C(=O)O)cn(C3CC3)c12 (centres undefined) , tested on PC-3 prostate.
> 50 µM

Item: CCOc1cc(C(C)(C)C)ccc1C1=N[C@@](C)(c2ccc(Cl)cc2)[C@@](C)(c2ccc(Cl)cc2)N1C(=O)N1CCN(CCS(C)(=O)=O)CC1 Test system: PC-3 prostate Read-out: GI50 Value: ?
2.01 µM

Fill in the recorded GI50 for this molecule, with PC-3 prostate as test system: COc1cc2c(cc1OC)-c1ncc3cc4c(cc3c1C2)OCO4
> 100 µM

Query GI50 on PC-3 prostate for Cc1sc2ncn(Cc3ccc(Cl)c(Cl)c3)c(=O)c2c1C
20.1 µM
